Biological target: Gastrin/cholecystokinin type B receptor (Cavia porcellus)
Assay: Inhibitory activity towards binding of [125I]Bolton-Hunter-CCK-8 to CCKB receptor in guinea pig cortical tissue
recorded_endpoint: pIC50
Answers are plain numbers, as −log10 of the molar value.

Known pIC50 results, listed for orientation:
In [3]: df
Out[3]:
                                   compound  recorded_endpoint  value_observed
0  Cc1cccc(NC(=O)N[C@H](COC(=O)N2CCCC2)C(=O)N2CCC(C(=O)Nc3ccccc3)CC2)c1              pIC50            7.47
1  Cc1cccc(NC(=O)N[C@H](COC(=O)N2CCOCC2)C(=O)N2CCC(C(=O)c3ccccc3)CC2)c1              pIC50            6.74
2  CC(C)C[C@H](NC(=O)[C@H](Cc1c[nH]c2ccccc12)NC(=O)OC(C)(C)C)C(=O)N1CCC(C(=O)c2ccccc2)CC1              pIC50            6.04
3  Cc1cccc(NC(=O)N[C@H](COC(=O)Nc2ccccc2)C(=O)N2CCC(C(=O)c3ccccc3)CC2)c1              pIC50            6.92
4  Cc1cccc(NC(=O)N[C@H](CS(=O)(=O)Cc2ccccc2)C(=O)N2CCC(C(=O)c3ccccc3)CC2)c1              pIC50            6.09
5  Cc1cccc(NC(=O)N[C@H](COCc2ccccc2)C(=O)N2CCC(C(=O)Nc3ccccc3)CC2)c1              pIC50            6.80

We next turn to a different compound, shown below.
Req: Using the record for Cc1cccc(NC(=O)N[C@H](CCCc2ccccc2)C(=O)N2CCC(C(=O)c3ccccc3)CC2)c1 , report its pIC50.
Resp: 5.96

###

Molecular target: Gastrin/cholecystokinin type B receptor (Cavia porcellus)
Assay: Inhibitory activity towards binding of [125I]Bolton-Hunter-CCK-8 to CCKB receptor in guinea pig cortical tissue
Answer each item with its documented pIC50.
Numbers only, as −log10 of the molar value.

Field: example entries. Status: answers known.
In [3]: df
Out[3]:
                                   compound                              assay_target  value_observed
0  Cc1cccc(NC(=O)N[C@H](CCC(=O)OCc2ccccc2)C(=O)N2CCC(C(=O)Nc3ccccc3)CC2)c1  Gastrin/cholecystokinin type B receptor (Cavia porcellus)            5.70
1  Cc1cccc(NC(=O)N[C@H](CCc2ccccc2)C(=O)N2CCC(C(=O)c3ccccc3)CC2)c1  Gastrin/cholecystokinin type B receptor (Cavia porcellus)            5.41

Please go through the list and note pIC50 for each compound.
1. Cc1cccc(NC(=O)N[C@H](COCc2ccccc2)C(=O)N2CCC(C(=O)c3ccccc3)CC2)c1
2. Cc1cccc(NC(=O)N[C@H](COCc2ccccc2)C(=O)N2CCC(C(=O)c3ccc(F)cc3)CC2)c1
3. Cc1cccc(NC(=O)N[C@H](COC(=O)N2CCCC2)C(=O)N2CCC(C(=O)c3ccccc3)CC2)c1
4. CCCC[C@@H](NC(=O)Nc1cccc(C)c1)C(=O)N1CCC(C(=O)c2ccccc2)CC1
5. Cc1cccc(NC(=O)N[C@H](COC(=O)N(C)C)C(=O)N2CCC(C(=O)c3ccccc3)CC2)c1
6. CC(Cc1c[nH]c2ccccc12)(NC(=O)OC1[C@H]2C[C@@H]3C[C@@H](C[C@H]1C3)C2)C(=O)N1CCC(C(=O)c2ccccc2)CC1 (some centres undefined)
7. Cc1cccc(NC(=O)N[C@@H](C(=O)N2CCC(C(=O)c3ccccc3)CC2)[C@@H](C)OCc2ccccc2)c1

Resp:
1: 6.52; 2: 6.64; 3: 7.00; 4: 5.32; 5: 5.82; 6: 5.47; 7: 6.36

###

Target: Gastrin/cholecystokinin type B receptor (Cavia porcellus)
Assay: Inhibitory activity towards binding of [125I]Bolton-Hunter-CCK-8 to CCKB receptor in guinea pig cortical tissue
pIC50: −log10 of the molar value.
For each entry below, report its pIC50 value.

Examples with answers:
In [3]: df
Out[3]:
                                   compound  value_observed
0  CC(C)C[C@H](NC(=O)[C@H](Cc1c[nH]c2ccccc12)NC(=O)OC(C)(C)C)C(=O)N1CCC(Cc2ccccc2)CC1          < 5.00
1  Cc1cccc(NC(=O)N[C@H](COCc2ccccc2)C(=O)N2CCC(Cc3ccccc3)CC2)c1          < 5.23
2  Cc1cccc(NC(=O)N[C@H](CCC(=O)OCc2ccccc2)C(=O)N2CCC(NC(=O)c3ccccc3)CC2)c1          < 5.00
3  CC(C)(C)OC(=O)N[C@@H](Cc1c[nH]c2ccccc12)C(=O)N1CCC(C(=O)c2ccccc2)CC1          < 5.00

Req: Given the entry Cc1cccc(NC(=O)N[C@H](CCC(=O)OCc2ccccc2)C(=O)N2CCN(C(=O)c3ccccc3)CC2)c1 , report its measured pIC50.
Resp: < 5.00
